Test system: HCC1569
assay.summary: H1.0 immunofluorescence intensity relative to DMSO (% of DMSO); higher = stronger H1.0 induction, active = 140 or more;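 also: TDF is a line of transformed human dermal fibroblasts of mesenchymal origin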
condition.context: concentration: 10 µM; 24 h
Label class 1 when H1.0 immunofluorescence intensity is at or above 100; otherwise label class 0.

Please review the entries below; each comes with its answer.
{"molecule": "CN(C)CCOC(C)(c1ccccc1)c1ccccn1.O=C(O)CCC(=O)O (configuration not stated) [Doxylamine succinate]", "cat": "class 0"}
{"molecule": "CC(C=CC=C(C)C=CC1=C(C)C(=O)CCC1(C)C)=CC=CC=C(C)C=CC=C(C)C=CC1=C(C)C(=O)CCC1(C)C [Canthaxanthin]", "cat": "class 1"}
{"molecule": "O=C(c1ccccc1)c1ccc(N2CCOCC2)cc1O [DNA-PK Inhibitor V]", "cat": "class 1"}

Now take the following molecule into account.
Decide: is the reported value of H1.0 immunofluorescence intensity for CC(CN1c2ccccc2Sc2ccccc21)N(C)C.Cl (configuration not stated) [Promethazine.HCl] equal to or greater than 100?
class 1

###

Each item that follows carries a reported H1.0 immunofluorescence intensity.
System: TDF
assay.summary: H1.0 immunofluorescence intensity relative to DMSO (% of DMSO); higher = stronger H1.0 induction, active = 120 or more
condition.context: concentration: 10 µM; 24 h
// print number alone

{"compound": "O=C(C=Cc1ccc(O)cc1)c1ccc(O)cc1O", "measurement.label": "H1.0 immunofluorescence intensity", "value.measured": 89.2}
{"compound": "CCCCCCCCC=CCCCCCCCC(=O)OCC(O)COP(=O)(O)O (stereo not drawn)", "measurement.label": "H1.0 immunofluorescence intensity", "value.measured": 96.9}
{"compound": "C=C1CC2C3C=C(C)C4=CC(=O)CCC4(C)C3CCC2(C)C1(OC(C)=O)C(C)=O (stereo not drawn) [Melengestrol Acetate]", "measurement.label": "H1.0 immunofluorescence intensity", "value.measured": 94.3}
{"compound": "Cc1cccc(C)c1OCC(N)C(C)C.I (stereo not drawn)", "measurement.label": "H1.0 immunofluorescence intensity", "value.measured": 91.3}
{"compound": "CC(=O)Nc1ccc(NC(=S)NC(=O)c2ccc(C(C)(C)C)cc2)cc1", "measurement.label": "H1.0 immunofluorescence intensity", "value.measured": 104}
{"compound": "O=C(O)Cc1sc(-c2ccccc2)nc1-c1ccc(Cl)cc1", "measurement.label": "H1.0 immunofluorescence intensity", "value.measured": 89.6}
{"compound": "N#Cc1c(O)c2c(-c3ccc(-c4ccccc4O)cc3)csc2[nH]c1=O", "measurement.label": "H1.0 immunofluorescence intensity", "value.measured": 98.8}

Could you now look at the following compound, please?
What does the record list as H1.0 immunofluorescence intensity for COc1cccc2c1C1CN(CCCCn3c(=O)[nH]c4c(sc5ncc(-c6ccccc6)nc54)c3=O)CC1CO2.Cl (stereo not drawn) [Fiduxosin hydrochloride] ?
102

###

System: TDF
assay.summary: H1.0 immunofluorescence intensity relative to DMSO (% of DMSO); higher = stronger H1.0 induction, active = 120 or more
condition.context: concentration: 10 µM; 24 h
Classification by H1.0 immunofluorescence intensity follows these ranges: Low: < 90; Mid: ≥ 90 and < 100; High: ≥ 100

Please review the entries below; each comes with its answer.
{"compound": "CC12CCC(=O)C=C1CCC1C2C(O)CC2(C)C1CCC2(O)C(=O)COC(=O)CCC(=O)[O-].[Na+] (stereo not drawn) [Hydrocortisone 21-hemisuccinate sodium]", "cat": "Low"}
{"compound": "CC(NC(=O)C(C#N)=Cc1ccc(O)c(O)c1)c1ccccc1 (stereo not drawn) [Tyrphostin AG 835]", "cat": "Low"}
{"compound": "CN1CCCC1c1cccnc1 (single isomer, unassigned; (-)) [(-)-Nicotine]", "cat": "Mid"}
{"compound": "Br.Oc1ccc(C2CNCCc3c2cc(O)c(O)c3Cl)cc1 (stereo not drawn) [Fenoldopam bromide]", "cat": "Low"}
{"compound": "Cl.NC12CC3CC(CC(C3)C1)C2 [Amantadine hydrochloride]", "cat": "High"}

Now take the following compound into account.
Categorize the following entry: CN(C)CCCN1c2ccccc2CCc2ccccc21.Cl [Imipramine.HCl]
Mid
